Experimental Target: T1, 4H3395-AA
T1 chain: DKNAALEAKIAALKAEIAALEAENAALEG
Experiment Description: two-hybrid library CCmax;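 further: natural log of median RNA to DNA barcode read ratio; higher means stronger binding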
Condition Info: mean of both orientations
Just a reminder that ties go to Criterion not met: only interaction score strictly below -1 counts as Criterion met.

I wonder whether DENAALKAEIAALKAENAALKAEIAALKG [4H1626-AA] has interaction score below -1. Can you tell? Criterion met

I wonder whether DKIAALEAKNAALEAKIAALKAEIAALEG [4H2473-AA] has interaction score below -1. Can you tell? Criterion met

I wonder whether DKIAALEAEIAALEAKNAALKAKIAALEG [4H2109-AA] has interaction score below -1. Can you tell? Criterion not met

I wonder whether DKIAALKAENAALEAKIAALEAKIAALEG [4H2725-AA] has interaction score below -1. Can you tell? Criterion met

I wonder whether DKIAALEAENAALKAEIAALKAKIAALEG [4H2253-AA] has interaction score below -1. Can you tell? Criterion met

I wonder whether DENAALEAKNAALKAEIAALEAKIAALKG [4H1478-AA] has interaction score below -1. Can you tell? Criterion not met

I wonder whether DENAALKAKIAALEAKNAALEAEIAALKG [4H1842-AA] has interaction score below -1. Can you tell? Criterion met
